These data points were gathered from the supplement of paper PMC10724198.

Tested on: Saccharomyces cerevisiae
Test: protein stability index of tFT-peptide fusion (C-terminal peptide) (PSI (0-1 scale)); higher = more stable (slower turnover)
Conditions: genetic background: wild type; temperature: 30 C
metric: protein stability index
Answer with the value's number alone.

Item: GVGLWGVGFRGG | protein stability index: 0.7

Data point: SNCARGNREFYW ; protein stability index = 0.733

// recorded protein stability index for KERQERGKRKII : 0.536

FRLPPRPPLTIP has a reported protein stability index of 0.673

Recorded result, CSCGRGRLARRL , protein stability index: 0.686

The measured protein stability index associated with DPRPPRPDFRPS reads 0.691

For reference, reported protein stability index for PLPPPPDSPPLP stands at 0.694

Memo: LGKGRYNIKINK , reported protein stability index: 0.695

Given item NYRPAHSFGVIS , the value recorded as its protein stability index is 0.725

get_value(item= LSLFMAAREVFP , readout=protein stability index) returns 0.664

Notebook: LPPPRSPPPLSA , protein stability index read as 0.622

Per the record, RFFFASRYIECF has protein stability index of 0.416

Item: FSASLLWFKEFW | protein stability index: 0.685

// protein stability index value for SLFFSTVELFFV : 0.671

protein stability index reading for RPSPLPALASSL : 0.65

Input SNCRLCGFGYVE . Output protein stability index: 0.697

Note to self: protein stability index recorded for EWNWRSVYGFGE was 0.748

The measured protein stability index associated with CCYCLTVCRWFT reads 0.571

So for RFDGLTTALDSV , the logged protein stability index turned out to be 0.669

Entry under test: YCRGGGRAKREV . Its protein stability index was 0.693

The measured protein stability index associated with GGCAGRGGVVVR reads 0.69

In plain terms, VSLCGSGLGLWV has a documented protein stability index of 0.682

Consider SLGSTHRWPPVV . Its measured protein stability index is 0.627

Just so you know, measured protein stability index for NGKGARSGETRT came out at 0.647

Notebook: LCWASLLIVYLP , protein stability index read as 0.392

Entry PKKKKKKTKAEK ; protein stability index = 0.712

Record LFLSFLLLYFRP . Reported protein stability index: 0.351

Per the record, RADIRYCNCRGQ has protein stability index of 0.607

sequence MPENGSTKSWWK , protein stability index observed: 0.696

The sequence identified as GKEGGRERVANE registered its protein stability index at 0.639

Notebook: KKLKQTRRKKEN , protein stability index read as 0.73

Per the records, this sequence ( AGTALVFNGSKA ) has protein stability index equal to 0.721

Input LSLVDFSTLWFF . Output protein stability index: 0.611

# sequence APPPPPRISAWL ; its protein stability index = 0.745

Lab book: protein stability index of LSIGGDLLFLRE noted as 0.716

Recorded protein stability index (sequence CLLSWVLDCFLV ): 0.548

Entry CQQCLATYNKGP ; protein stability index = 0.708

# sequence LPDLSPIRRCPL ; its protein stability index = 0.694

The sequence identified as FLFFWRASLFFW registered its protein stability index at 0.229

// recorded protein stability index for PPPPAHPPPRSP : 0.741

Reported protein stability index of PLLRGFPAHLAS : 0.699

According to the records, this sequence WSIVVDDISWSV displays protein stability index of 0.698

# protein stability index of TGWWSPCRLDSS = 0.722

Short answer for ICIGRDISNQSC : protein stability index was 0.703

sequence KKKKNKKKNKKK , protein stability index observed: 0.669

For LSSTGFDLWSLL the sequence record lists protein stability index as 0.769

response.value for PRPLTPDPPRPL (field: protein stability index) = 0.693

Noted for HPTHTPPSTHRD : its protein stability index reads 0.732

Quick note, protein stability index for WCPGVSGVAGVF landed at 0.703

Form field protein stability index, entry PAPPSPPPPLYP : 0.721

Record SLSFPPNTFSFP , field protein stability index: 0.738

For record SSRVALRIPGIG the listed protein stability index is 0.678

// field: protein stability index; key: IPPDAFAQLTYS ; value = 0.733

// protein stability index lookup, sequence = LVVPNFPLSFSV , result: 0.732

Value of measured protein stability index for the entry ISWERIHEKKRK : 0.784

protein stability index for SPCMLLAVPHRL is 0.728

Per the records, this sequence ( APPPPPVHPSSP ) has protein stability index equal to 0.734

Memo: KQKNKNNVKQPN , reported protein stability index: 0.693

The recorded protein stability index for entry PRPPSPAPPPHP equals 0.699

Reported protein stability index ( VIQKHAMGDALL ) = 0.699

The measured protein stability index associated with SAGARIRPADAL reads 0.68

Looking up CPNFYPARNSRL , I see its protein stability index listed as 0.696

Measured protein stability index, PFGPTFSPRPFR : 0.773

Item: SYLPSHVYIFLL | protein stability index: 0.128

// protein stability index value for EKSNQKSRRNSR : 0.638

Please fill in: protein stability index reported for PLFTPPPVLHHP = 0.752

Lab note: WFFTDIVMLVRV gave protein stability index of 0.273

Lookup result for KLRIVYAKVVCS ; measured protein stability index: 0.348

Consider NCKLAVSPRPLR . Its measured protein stability index is 0.692

get_value(item= SNFFPVPLLLFR , readout=protein stability index) returns 0.383

Reported protein stability index of KVLGSNNMRRSS : 0.702

Input FQPLELFFVCVF . Output protein stability index: 0.305

The recorded protein stability index for VRYRSGLVFEGV is 0.747

The recorded protein stability index for entry MSPSVFLPPLPL equals 0.662

Entry VFSRVLSVLLSA , protein stability index reported as 0.386

Record EIEFRLKLGTGV . Reported protein stability index: 0.655

protein stability index in this record for SLVLPIFRIVSF : 0.573

Record FQMLPLGHQFPQ . Reported protein stability index: 0.736

For VKGVGNTAGRGV the sequence record lists protein stability index as 0.659

Recorded protein stability index (sequence AACLCATYPVGT ): 0.752

Record summary for MITRPASKYLVK : reported protein stability index = 0.622

protein stability index in this record for NGTGGVEGPQTL : 0.659

====

Test system: Saccharomyces cerevisiae;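 further: PSI is a weighted mean of sequencing reads over stability bins, variants kept only with over 10 reads, mCherry proximal and sfGFP distal, peptide attached via GGGS linker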
Assay: protein stability index of tFT-peptide fusion (C-terminal peptide) (PSI (0-1 scale)); higher = more stable (slower turnover)
Settings: genetic background: wild type; temperature: 30 C
Think of 0.7 as a floor: if protein stability index stands on it or above, it is 1; beneath it, -1.

Is protein stability index at least 0.7? Consider GHCVALGNRVLH
-1

Is protein stability index for PPPAPPLSPPPH at or above 0.7?
-1

Hello, I need to know if CFVPFFLPLCAF has measured protein stability index not below 0.7. Thanks!
-1

Evaluate VLISLVLLFRCW : protein stability index at minimum 0.7?
-1

Threshold query (protein stability index >= 0.7) on LFPPTPRPLPLP
-1

protein stability index >= 0.7 for PPSRVSIRLLIR ?
-1

For this sequence, is measured protein stability index 0.7 or higher? FGARCSLSPLVT
-1

Entry FGPAQGYCLVGA : is its protein stability index no less than 0.7?
-1

Decide: protein stability index of LPPPFPSPPRPP >= 0.7?
-1

Reported protein stability index reaches at least 0.7 for WSFAPRLRCSYL ?
1

Identify whether the reported protein stability index of the following sequence is 0.7 or greater: AHWYPAGQCSRL
1

Exam item: decide whether the reported protein stability index for GIKKKKKKQDKK is at least 0.7.
1

Test whether the sequence LLPFCPPCLRSL records protein stability index of 0.7 or higher.
-1

Could you please find out whether YPVGAAFIRARA has protein stability index that meets 0.7 or exceeds it?
-1

hey, is protein stability index for this one >= 0.7? PPPLPTRPPPSA
-1

API: above_or_equal(metric=protein stability index, cutoff=0.7) for item RTTDPHNRPIRP
-1

Record VWFFLLSFANRL ; criterion: protein stability index no lower than 0.7. Met?
-1

Please check the record VCLFWLFLWRIL and state if its protein stability index is at or above 0.7.
-1

Please check the record GVVGGWRGAGWR and state if its protein stability index is at or above 0.7.
1

Determine whether measured protein stability index meets or exceeds 0.7 for GKALESLEGQFT
1

Tell me whether protein stability index is at least 0.7 here: ECRGGPGLGGGV
-1

Could you please find out whether KKKDKKVKRRKV has protein stability index that meets 0.7 or exceeds it?
1

Item IARENLNRSRFS with protein stability index of 0.7 or above?
-1

Could you verify whether the entry ICQLLKFPLFWC shows protein stability index of no less than 0.7?
-1

Check this sequence for protein stability index at or above 0.7: GDYETPSTRSPM
-1

Given the entry VSFRAMDRLTSR , answer whether its protein stability index meets or surpasses 0.7.
-1
